Experiment: In vitro clearance in dog liver microsomes
Assay type: ADME, Canis lupus familiaris, Microsome
Details: read-out: Clearance
MEASURE: CLint scaled (mL/min/kg)

ENTRY SMILES	NUMERIC VALUE
Cn1c(CCC(=O)Nc2ccc3ccn(CC[C@H](CO)n4cnc(C(N)=O)c4)c3c2)nc2ccccc21	97

###

Experiment: Oral bioavailability in dog (dose 10 mg/kg)
Format: ADME, organism-based, Canis lupus familiaris
Conditions: in vivo

ENTRY SMILES	VALUE UNIT	bioavailability
C[C@H](O)[C@@H](CCOc1ccc2ccccc2c1)n1cnc(C(N)=O)c1	%	91
C[C@H](O)[C@@H](CCc1cccc(Cl)c1Cl)n1cnc(C(N)=O)c1	%	43
C[C@H](O)[C@@H](CCc1cccc2ccccc12)n1cnc(C(N)=O)c1	%	38

###

Readings of CLint scaled for the listed compounds
Test: In vitro clearance in human liver microsomes
Format: ADME, Microsome
Details: read-out: Clearance

ENTRY SMILES	CLint scaled [mL/min/kg]
C[C@H](O)[C@@H](CCc1cccc(Cl)c1Cl)n1cnc(C(N)=O)c1	4.5
Cn1c(CCC(=O)Nc2ccc3ccn(CC[C@H](CO)n4cnc(C(N)=O)c4)c3c2)nc2ccccc21	123
C[C@H](O)[C@@H](CCOc1ccc2ccccc2c1)n1cnc(C(N)=O)c1	3.8
C[C@H](O)[C@@H](CCc1cccc2ccccc12)n1cnc(C(N)=O)c1	45

###

Readings of AUC for the listed compounds
Assay: AUC in rat after po administration at a dose of 10 mg/kg
Assay type: ADME, organism-based
Set-up: dose 10 mg/kg, route oral
Conditions: plasma, read-out: AUC 0-24h

ENTRY SMILES	VALUE UNIT	CENSORING QUALIFIER	AUC
C[C@H](O)[C@@H](CCc1cccc2ccccc12)n1cnc(C(N)=O)c1	ng·h/mL	=	1370
Cn1c(CCC(=O)Nc2ccc3ccn(CC[C@H](CO)n4cnc(C(N)=O)c4)c3c2)nc2ccccc21	ng·h/mL	<	100
C[C@H](O)[C@@H](CCOc1ccc2ccccc2c1)n1cnc(C(N)=O)c1	ng·h/mL	=	1850
C[C@H](O)[C@@H](CCc1cccc(Cl)c1Cl)n1cnc(C(N)=O)c1	ng·h/mL	=	2110

###

Readings of half-life for the listed compounds
Test: Half-life in rat after po administration at a dose of 10 mg/kg
Assay type: ADME, organism-based
Parameters: dose 10 mg/kg, route oral
Conditions: in vivo
MEASURE: half-life

ENTRY SMILES	RESULT
C[C@H](O)[C@@H](CCc1cccc2ccccc12)n1cnc(C(N)=O)c1	0.66 h
C[C@H](O)[C@@H](CCc1cccc(Cl)c1Cl)n1cnc(C(N)=O)c1	1.66 h
C[C@H](O)[C@@H](CCOc1ccc2ccccc2c1)n1cnc(C(N)=O)c1	1.12 h

###

Experiment: Solubility was determined
Type: physicochemical

ENTRY SMILES	Solubility [µg/mL]
C[C@H](O)[C@@H](CCc1cccc2ccccc12)n1cnc(C(N)=O)c1	481
Cn1c(CCC(=O)Nc2ccc3ccn(CC[C@H](CO)n4cnc(C(N)=O)c4)c3c2)nc2ccccc21	4.2
C[C@H](O)[C@@H](CCc1cccc(Cl)c1Cl)n1cnc(C(N)=O)c1	500
C[C@H](O)[C@@H](CCOc1ccc2ccccc2c1)n1cnc(C(N)=O)c1	80

meta.source: ChEMBL document CHEMBL1148456
